Test system: Nakaseomyces glabratus
PROTOCOL TEXT: Antimicrobial activity against Candida glabrata ATCC 90030 by CLSI method
Type: functional
Catalogue of molecules with associated MIC
EXPERIMENTAL ENDPOINT: MIC (µg/mL)

INSERT INTO results (smiles_entry, experimental_endpoint, unit_name, readout_value) VALUES
  ('N#Cc1ccc(Sc2cc3ccccc3[n+](CCCCCC3CCCCC3)c2)cc1.[I-]', 'MIC', 'µg/mL', 10),
  ('FC(F)(F)c1ccc(Sc2cc3ccccc3[n+](CCCCCC3CCCCC3)c2)cc1.[I-]', 'MIC', 'µg/mL', 10),
  ('N#Cc1ccccc1Sc1cc2ccccc2[n+](CCCCCC2CCCCC2)c1.[I-]', 'MIC', 'µg/mL', 20),
  ('Fc1cccc(Sc2cc3ccccc3[n+](CCCCCC3CCCCC3)c2)c1.[I-]', 'MIC', 'µg/mL', 20),
  ('Oc1ccccc1Sc1cc2ccccc2[n+](CCCCCC2CCCCC2)c1.[I-]', 'MIC', 'µg/mL', 20);
